Test system: Spleen
MEASUREMENT_PROTOCOL: Biodistribution in ddY mouse spleen at 0.2 to 0.4 uCi, iv after 2 mins
Type: ADME, organism-based
EXPERIMENTAL_SETUP: in vivo

[
  {
    "SMILES_STR": "COc1ccc(-c2cc3cc([125I])ccc3[nH]2)cc1",
    "MEASUREMENT_UNIT": "% ID/g",
    "Drug uptake": 4.22
  },
  {
    "SMILES_STR": "CN(C)c1ccc(-c2cc3cc([125I])ccc3[nH]2)cc1",
    "MEASUREMENT_UNIT": "% ID/g",
    "Drug uptake": 4.13
  },
  {
    "SMILES_STR": "OCCOc1ccc(-c2cc3cc([125I])ccc3[nH]2)cc1",
    "MEASUREMENT_UNIT": "% ID/g",
    "Drug uptake": 7.56
  },
  {
    "SMILES_STR": "CNc1ccc(-c2cc3cc([125I])ccc3[nH]2)cc1",
    "MEASUREMENT_UNIT": "% ID/g",
    "Drug uptake": 7.83
  }
]
